// data source = patent US20090286854A1

- measuredTarget: MUC1 5TR (five tandem repeat recombinant MUC1, unglycosylated) (Homo sapiens, UniProt P15941 P15941:161-260)
- Sequence (P15941 141-240, one chain of several): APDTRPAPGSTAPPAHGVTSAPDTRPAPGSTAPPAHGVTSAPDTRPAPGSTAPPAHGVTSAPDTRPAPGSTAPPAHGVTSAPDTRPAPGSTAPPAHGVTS
- experimentSummary: SPR; 100 mM NaCl, 5 mM MgCl2, pH 7.4; printed ka and kd would give 0.85 nM; p17 and claim list print SEQ 2 with 3' G instead of C
- details: tags: 6xHis; expressed in E. coli BL21; biotin-XX labelled for SPR; about 11.8 kDa
pKd: −log10 of the molar value.
quantity: pKd

In [3]: df
Out[3]:
                                     binder  testvalue
0  GGCTATAGCACATGGGTAAAACGAC (ssDNA) [MUC1 5TR-2]       7.07
